- experimental details: yeast display, Sf9 membrane polyspecificity reagent, FACS + sequencing; frameworks hold sequencing errors
measurement name: polyreactivity (PSR sort gate)

QVQLVESGGALVQAGGSLRLSCAASGNTFIPNAMGWYRQAPGKERELVAAIRASGGSTYYADSVKGRFTISRDNAKNTVYLQMNSLKPEDTAVYYCNADIWYKTYDYWGQGTQVTVSS    low polyreactivity
QVQLVESWGGLFQAGGTLRLSCAASGRTFIGYDMEWYRQAPGKERELVATISWNGADTYYADSVKGRYTISRDNAKNTVYLKMNSLKPEDTEVYYCAAERENGDHYRYYYWGQGTQVTVSS    low polyreactivity

----------
- experimental details: yeast display, Sf9 membrane polyspecificity reagent, FACS + sequencing; frameworks hold sequencing errors
measurement name: polyreactivity (PSR sort gate)

QVQLVESGGGLVQAGGSLRLSCADSGFIFWVYAMGWYRQAPGKERELVAAITSGGGSTYYADSVKGRFTISRDNAKNTVYLQMNSLKPEDTAVYYCATSLYTDNSWENYWGQGTQVTVSS    high polyreactivity
QVQLVESGGGLVQAGGSLRLSCAASGSIFIGYARGWYRQAPGKERELVAGISWSGGSTYYADSVKGRFSISRDNAKNTVYLQMNSLKPEDTAVYYCNADITLYYFWAWTYGYYYWGQGTQVTVSS    high polyreactivity

----------
- experimental details: yeast display, Sf9 membrane polyspecificity reagent, FACS + sequencing; frameworks hold sequencing errors
measurement name: polyreactivity (PSR sort gate)

QVHLVESGGGLVQAGGSLRLSCAASGRNFGYYARGWYRQAPVKERELVAAIDSSGGDTYYADSVKGRFTISRDNAKNSVYVQMNSLKPEDTAVFYCAAEYVAQAGYGVDYWGQGTEVTVSS    low polyreactivity
QVQLVESGGGLVQAGGSLRLSCAASGFIFFYNAMGWYRQAPGKERELVAAISARGGSTYYADSVKGRFTISRDNAKNTVYLQMNSLKPEDTAVYYCNAVFPWPYVSRSIYWYYWGQGTQVTVSS    high polyreactivity
QVQLVESGGGLVQTGGSLRLSCAASGRIFRYYDMGWYRQAPGKEREFVAAITRSGAITYYADSVKGRFTISRDNAKNTVYLQMNSLKPEDTAVYYCFAVRHYALYAGRPYDYWGQGTQVTVSS    low polyreactivity
QVQLVESGGGLVQAGGSLRISCAASGGTFQAYAMGWYRPAPGKERELVAAITRRGTRTYYADSVKGRFTISRDNAKNTVYLQMNSLKPEDTAVYYCAAVRYPNWYDYWGQGTQVTVSS    high polyreactivity
QVQLVESGGGLVQAGGSLRLSCAASGITLDRNYMGWYRQAPGKERELVAAISRSGVRTYYADSVKGRFTISRDNAKNTVYLQMNSLKPEDTAVYYCNKGYARRYASGYDYWGQGTQVTVSS    high polyreactivity

The recorded polyreactivity (PSR sort gate) for QVQLVESGGGLVQSGGSLRLSCAASGSIFTGYAMGWYRQAPGKERELVAAITGRGTRTYYADSLKGRFTISRDNANNTVSLQMNSLKPEDTAVYYCAAPVGASSYRDYYWGQGTQVNVSS is high polyreactivity

The recorded polyreactivity (PSR sort gate) for QVQLVESGGGLVQAGGSLRLSCAASGYTFPYYTMGWYRQAPGKERELVATITRRGDSTYYADSVKGRFTLSRDNAKNTVYLQMNSLKPEDTAVYYCNTASYGRHQFRKSSKMDYWGQGTQVTVSS is high polyreactivity

The recorded polyreactivity (PSR sort gate) for QVQLVESGGGLVQARGSLRLSCAASGIIFGYNAKGWYRQAPGKERELVAVITWNGGSTYYADSVKGCFTISRDNAKNTVYLQMNSLKPEDTAVYYCNAGDDYAYGVELSYDYWGQGTQVTVSS is low polyreactivity

The recorded polyreactivity (PSR sort gate) for QVQLVESGGGLVQAGGSLRLSCAPSGFTFLYYVMGWYRQAPGKERELVAAINAGGGSTYYAESVKGRFTLSRDNAKNSVYLQMKSLKPADTAVYYCNARVRVRLGRNWSSYYDWGQGTQVTVSS is high polyreactivity

The recorded polyreactivity (PSR sort gate) for QVQLVESGGGLLQAGGSLRLSCAASGSIFESYAMGWYRQAPGKERELVAAITSSGDSTYYADSVKGRFTISRDNAKNTVYLQMNSLKPEDTAVYYCAKRVPTYISTAEWGSRYDYWGQGTQVTVSS is low polyreactivity

----------
- experimental details: yeast display, Sf9 membrane polyspecificity reagent, FACS + sequencing; frameworks hold sequencing errors
measurement name: polyreactivity (PSR sort gate)

Worked set:
QVQLVESGGGLVQAGGSLRLSCAASGFIFWTYAMGWYRQAPGKERELVAAITGGGGTTYYADSVKGRFTISRDNAKNTVYLQMNSLKPEDTAVYYCAAKQYRSRSGGYWGQGTQVTVSS    high polyreactivity
QVQLVESGGGLVQAGGSLRLSCAASGSIFESYARGWYRHSPGKERELVADITYHGGITYYADSVKGRFTISRDNAKNNFYLQMNSLKPEDTSVYYCAAESEKWYNYVLSYDWEYDYWGQGTQVTVSS    low polyreactivity
QVQLVESGGGLVQAGGSLRLSCAASGSTFWANAMGWYRPAPGKERELVAAISRNGGSTYYADSVKGRFTISRDNAKNTVYLQMNSLKPEDTAVYYCAAKKYYYRRQLDYWGQGTQVTVSS    high polyreactivity
QVQLVESGGGLVQAGGSLRLSCAASGRILSFYAMGWYRQAPGKEREFVATITWSGGSTYADSVKGRFTISRDNANNSVYLQMNSLKPEDTAVYYCNAELSNYKYDYWGQGTHVTVSS    low polyreactivity

--- query ---
The recorded polyreactivity (PSR sort gate) for QVQLVESGGGLVQSGCSLRLSCAASGSTFYRYAMGWYRQAPGKERELVAAITSAGSTNYADSVKGRFTISRDNAKNTVYLLMNSLKPEDTAVYYCAADHGRPYFSYDYWGQGTQVTVSS is low polyreactivity

----------
- experimental details: yeast display, Sf9 membrane polyspecificity reagent, FACS + sequencing; frameworks hold sequencing errors
measurement name: polyreactivity (PSR sort gate)

Worked set:
QVQLVESGGGLVQAGGSLRLSCAASRSIFRIYAMGWYRQAPGKERELVAGISKSGGSTYYADSVKGRFTISRDNAKNTVYLQMNSLKPEDTAVYYCNAGYNWSGLAVGRYGYDSWGQGTQVTVSS    low polyreactivity
QVQLVESGGGLVQAGGSLRLSCAASGFTLDWYVMGWYRQAPGKERELVAAISSSGGRTYYADSVKGRFTISRDNAKNTVSLQLNSLKPEDTAVYYCAARNKYGGYPYGYDYWGQGTQVTVSS    high polyreactivity
QVQLAESGGGLVQAGVSLRISCAASGSTFSVYAMGWYRQAPGKERELVATIRRGGSTYADSVKGRFTISRDNAKITVYLQMNRLKPEDTAVYYCASDAYVSYQPMDYWGQGTQVTVSS    high polyreactivity
QVQLVESRGGLVQAGGSLRLSCAASGRTFDRNAMGWYRQAPGKERQFVAAITSRVGSTYYADSVKGLFTISRDTAKNTVYLQMNSQKPEDTAVYDCNKRYFGEQTWVGGDSWGQGTLVTVSS    high polyreactivity

The recorded polyreactivity (PSR sort gate) for QVQLVESGGGLVQAGGSLRLSCAASGSTFYLYPMGWLRQAPGKERELVAAIRQSGGSTYYADSVKGRFTISRDNAKNTVYLQMNSLKPEDTAVYYCAARPSYRLGQRYYYWGQGTQVTVSS is high polyreactivity

The recorded polyreactivity (PSR sort gate) for QVQLVESGGGLVQAGGSLRLSCAASGSTFSDYAMGWYRQAPGKERELVAAISSSGGRTYYADSVKGRFTISRDNAKNTVYLQMNSLKPEDTAVYYCNAYYIYILYGGQTYTGDYWGQGTQVTVSS is high polyreactivity

----------
- experimental details: yeast display, Sf9 membrane polyspecificity reagent, FACS + sequencing; frameworks hold sequencing errors
measurement name: polyreactivity (PSR sort gate)

QVQLVESGGGLFQAGGSLRLSCAASGFIFSHYAMGWYRQAPGNDREFVATISKRGGSTTYADSVKGRFTISRDNAKNTVYFQMNSLKPVDTAVYDFAADYYPASAGFDYWGQGTQVTVSS    high polyreactivity
QVQLVESGGGLVQAGGSLRLSCAASGSTFSKNAMGWYREAPGKERELVAAISGSGGSTYYADSVKGRFTISRDNAKKTVYLQMNSLKPEESAVYYCAARYSGRRYGYWGQGTQVTVSS    high polyreactivity
QVQLVESGGGLVQAGGSLRLSCAASGSIFHSYAMGWYRQAPGKERELVAGITSSCDRTNYADSVKGRFTISRDNAKITVYLQMNSLKPEDNAVYYCAAVARYPKGRTRRGYGYWGQGTQVTVSS    high polyreactivity

----------
- experimental details: yeast display, Sf9 membrane polyspecificity reagent, FACS + sequencing; frameworks hold sequencing errors
measurement name: polyreactivity (PSR sort gate)

Worked set:
QVQLVESGGGLVQAGGSLRLSCAASGYTFSRNAMGWYRQAPGKERELVADINYSGGITYYADSVKGRFTISRDNAKNTVYLQMNSLKPEDTAVYYCAAVATNVPTHGRPSRRAYDYWGQGTQVTVSS    low polyreactivity
QVQLVESGGGLVQAGGRLRLSCAASGLTFGWYTMGWYRQAPGKERELVADITWSGGSTYYADSVKGRFTISRDNAKNTVYLQMNSLKPEDTAVYYCNKVWFYLEYGFSILYDYWGQGTQVTVSS    low polyreactivity
QVQLVESGGGLVQAGGSLRLSCAASGSIFDLYAKGWYRQAPGKERELVAGISYSGGSTYYADSVKGRFTISRDNAKNTVYLQMNSLKPEDTAVYYCATAYYYHGGYYYPYDDYWGQGTQVTVSS    low polyreactivity
QVQLVESGGGLVQAGGSLRLSCAASGSTFTYYAMGWYRQAPGKERELVAAITFRGDSTYYADSVKGRFTISRDNAKNTVYLQMNSLKPEDTAVYYCNADSISSTYYDEDYWGQGTQVTVSS    low polyreactivity
QVQLVESGGGLVQAGGSLRLSCAASGFTFRTYAMGWYRQAPGKERELVAAITGSGGSTYYADSVKGRFTISRDNAKNTVYLQMNSLKPEDTAVYYCNAVERSAFRGVRFDYDYWGQGTQVTVSS    high polyreactivity
KDQLVESGVGLVQAGCSLRLSCAASGRTLRRNAMGWYRQAPRKERELVAAISTGGGSTYYADSVKGRFTISRDNAKNTVYLQMNSLKPVDTAVYYCAAVYSQSTKRYELYYWGQGTQVTVSS    high polyreactivity
QVQLQESGGGLVQAGGSLRLSCAASGSITHYIFMGWYRQAPGKEREFVAGIGYGGTTNYADSVKGRFTISRDNAINTVYLQMNSLKPEDTAMYYCAAREATEFYLYYWGQGTQVTVSS    low polyreactivity
QVQLVESGGGLVQAGGSLRLSCAASGRTLYYYTMGWYRPAPGKERELVAAIRWSTGSTYYADSVKGRFTISRDNAKNTVYLQMNSLKPEDTAVYYCNAYRYQWAQSTEYDYWGQGTQVTVSS    high polyreactivity
QVQLGDSGGGLVQAGGSLRLSCAASGSIFNKYAMGWYRQAPGKEREFVAPITQGGGRTYYADSVKGRFTISRDNAKNNVYLQMNSLKPEDTAVYYCIYNFNYPYYRYGYWGQGTQVTVSS    high polyreactivity
QFQLVESGGGLVQAGGSLRLSCAASGRIFGVYARGWYRQAPGKERELVAAISSTGGSTYYADSVKGRFTISRDTAKNTVYLQMNSLKPEDTAVYYCEYDYWGQGTQVTVSS    low polyreactivity

The recorded polyreactivity (PSR sort gate) for QVQLVESGGGLVQAGVSLRLSCAASAFILEGYAMGWYTQAPGKERELVAAISDSGGSTYYADSVKGRFTISRDNAKNTVYLQMNSLKPEDTAVYYCATAYYWWTAYSYSYDHWGQGTQVTVSS is high polyreactivity

The recorded polyreactivity (PSR sort gate) for KVQLVESGGGLVQAGGSLRLSRAASGFTFGSYAMGWYRQAPGKERELVAAITRRGGSTRYADSVKGRFTISRDNAKNTVYLQMNSLKPEDTAVYYCAAKHGRNYAANALYGYWGQGTQVTVSS is high polyreactivity

The recorded polyreactivity (PSR sort gate) for QVQLVESGGGLVQAGGSLRLICAASGYIFKYYAMGWYRQAPGKERELVATINYSGGGTYYADSVKGRFTISRDNAKNTVYLQMNSLKPEDTAVYYCAAREKYISYSYYYWGQGTQVTVSS is high polyreactivity

The recorded polyreactivity (PSR sort gate) for QVQLVESGGGLVQAGGSLRLSCAASGSTFVHYAMGWYRQAPGKEREFVASITRSGTSTYYADSVKGRFTISRDNAKNNVYLQMNSLKPEDTAVYYCNAELLGARQYWYYRYYYWGQGTQVTVSS is high polyreactivity

The recorded polyreactivity (PSR sort gate) for QVQLVESGGGLVQAGGSLRLSCAASGRTFSGYAMGWYRQAPGKERELVAAIDRGDGTNYADSVKGRFTISRDNAKNTVYLQMNSLKPEDTAVYYCAADDYWTPFGYWGQGTQVTVSS is low polyreactivity

The recorded polyreactivity (PSR sort gate) for QVQLVESGGGLVQAGGSLRLSCAASGNTFDGYDMGWYRQAPGKERELVAAITNTGASTYYADSVKGRFTISRDNAKNTVYLQMNSLKPEDTAVYYCTAQDSYPEDRHGMSYWGQGTQVTVSS is low polyreactivity

The recorded polyreactivity (PSR sort gate) for QVQLVESGGGLVQAGGSLRLSCAASGRTFLINAMGWYRQAPGKERELVAAITQSGGSTYYADSVKGRFTISRDNAKNTVYLQMNSLKPEDTAVYYCNAQSWYIVPYDYWGQGTQVTVSS is low polyreactivity

The recorded polyreactivity (PSR sort gate) for QVQLVESGGGLVQAGGSLRLSCAASGSILQDYAMGWYRQAPGKERELVAAISNSGDSTYYADSVKGRFTISRDNAKNTVYLQMNSLKPEDTAVYYCNAAVYPYALYSGGLDYDYWGQGTQVTVSS is low polyreactivity
